- experimentalTarget: Broad substrate specificity ATP-binding cassette transporter ABCG2 (Homo sapiens)
- method: Inhibition of BCRP expressed in MCF7 MX cells by Hoechst 33342 staining
- Assay type: cell-based
pIC50: −log10 of the molar value.
quantityKind: pIC50

Worked cases, pIC50 given:
{"columns": ["smilesString", "pIC50"],
 "data": [
  ["COc1cc2c(cc1OC)CN(CCc1ccc(NC(=O)Nc3ccc([N+](=O)[O-])cc3)cc1)CC2", 5.41],
  ["COc1cc2c(cc1OC)CN(CCc1ccc(NC(=O)c3ccccc3N)cc1)CC2", 4.49],
  ["O=C(Nc1ccc(CCN2CCc3ccccc3C2)cc1)c1ccccc1[N+](=O)[O-]", 4.29],
  ["COc1cc2c(cc1OC)CN(CCc1ccc(NC(=O)c3ccccc3NC(=O)c3ccc([N+](=O)[O-])cc3)cc1)CC2", 6.16],
  ["COc1cc2c(cc1OC)CN(CCc1ccc(NC(=O)c3ccccc3[N+](=O)[O-])cc1)CC2", 4.11],
  ["COc1cc2c(cc1OC)CN(CCc1ccc(NC(=O)Nc3ccccc3N)cc1)CC2", 4.18]
]}

[A] COc1cc2c(cc1OC)CN(CCc1ccc(NC(=O)c3ccc([N+](=O)[O-])cc3)cc1)CC2
[B] COc1ccc(C(=O)Nc2ccccc2C(=O)Nc2ccc(CCN3CCc4cc(OC)c(OC)cc4C3)cc2)cc1OC
[C] Nc1ccccc1C(=O)Nc1ccc(CCN2CCc3ccccc3C2)cc1
Request: Thanks in advance: please rank these 3 entries by pIC50, highest to lowest. Answer by naming the labels in the order asked.
Result: B, A, C

[P] COc1cc2c(cc1OC)CN(CCc1ccc(NC(=O)c3cc(OC)c(OC)cc3NC(=O)c3cnc4ccccc4c3)cc1)CC2
[Q] Nc1ccccc1NC(=O)Nc1ccc(CCN2CCc3ccccc3C2)cc1
[R] COc1ccc(C(=O)Nc2ccccc2NC(=O)Nc2ccc(CCN3CCc4cc(OC)c(OC)cc4C3)cc2)cc1OC
[S] COc1cc2c(cc1OC)CN(CCc1ccc(NC(=O)c3ccc(N)cc3)cc1)CC2
Request: Write the entries in order, lowest recorded pIC50 first. Answer by naming the labels in the order asked.
Result: S, Q, R, P

[1] COc1cc2c(cc1OC)CN(CCc1ccc(NC(=O)c3ccccc3NC(=O)Nc3ccc([N+](=O)[O-])cc3)cc1)CC2
[2] O=C(Nc1ccc(CCN2CCc3ccccc3C2)cc1)Nc1ccccc1[N+](=O)[O-]
[3] COc1cc2c(cc1OC)CN(CCc1ccc(NC(=O)Nc3ccc(N)cc3)cc1)CC2
Request: Write the entries in order, lowest recorded pIC50 first. Answer by naming the labels in the order asked.
Result: 3, 2, 1

###

- experimentalTarget: Broad substrate specificity ATP-binding cassette transporter ABCG2 (Homo sapiens, UniProt Q9UNQ0)
- Sequence (Q9UNQ0 whole entry): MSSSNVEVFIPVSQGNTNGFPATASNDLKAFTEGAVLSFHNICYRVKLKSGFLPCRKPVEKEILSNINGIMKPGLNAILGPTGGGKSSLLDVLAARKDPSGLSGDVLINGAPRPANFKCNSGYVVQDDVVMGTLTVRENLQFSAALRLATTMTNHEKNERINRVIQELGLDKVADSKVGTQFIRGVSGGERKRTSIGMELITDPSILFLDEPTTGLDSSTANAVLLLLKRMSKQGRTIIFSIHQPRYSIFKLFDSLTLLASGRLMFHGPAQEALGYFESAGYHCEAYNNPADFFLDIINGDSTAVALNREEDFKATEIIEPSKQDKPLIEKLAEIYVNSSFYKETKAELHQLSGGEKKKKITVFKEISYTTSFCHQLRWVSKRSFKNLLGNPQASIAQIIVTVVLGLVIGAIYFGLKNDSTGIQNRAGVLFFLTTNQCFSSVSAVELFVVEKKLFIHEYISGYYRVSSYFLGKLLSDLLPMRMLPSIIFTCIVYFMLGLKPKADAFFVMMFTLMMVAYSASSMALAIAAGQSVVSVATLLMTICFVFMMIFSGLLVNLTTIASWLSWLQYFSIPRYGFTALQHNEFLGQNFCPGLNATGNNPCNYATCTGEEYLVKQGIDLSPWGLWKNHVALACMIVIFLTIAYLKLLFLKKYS
- method: Inhibition of BCRP expressed in MDCK cells by pheophorbide A assay
- Assay type: cell-based
quantityKind: IC50 (µM)

Worked cases, IC50 given:
{"columns": ["smilesString", "unitsLabel", "recordedMeasurement"],
 "data": [
  ["COc1cc2c(cc1OC)CN(CCc1ccc(NC(=O)c3ccc([N+](=O)[O-])cc3)cc1)CC2", "µM", 4.38],
  ["COc1cc2c(cc1OC)CN(CCc1ccc(NC(=O)c3cc(OC)c(OC)cc3NC(=O)c3cnc4ccccc4c3)cc1)CC2", "µM", 0.85],
  ["COc1cc2c(cc1OC)CN(CCc1ccc(NC(=O)Nc3ccccc3[N+](=O)[O-])cc1)CC2", "µM", 9.08],
  ["COc1cc2c(cc1OC)CN(CCc1ccc(NC(=O)Nc3ccc([N+](=O)[O-])cc3)cc1)CC2", "µM", 2.61],
  ["O=C(Nc1ccc(CCN2CCc3ccccc3C2)cc1)c1ccccc1[N+](=O)[O-]", "µM", 45.7],
  ["COc1ccc(C(=O)Nc2ccccc2NC(=O)Nc2ccc(CCN3CCc4cc(OC)c(OC)cc4C3)cc2)cc1OC", "µM", 6.98],
  ["COc1cc2c(cc1OC)CN(CCc1ccc(NC(=O)c3ccccc3[N+](=O)[O-])cc1)CC2", "µM", 40]
]}

[a] Nc1ccccc1NC(=O)Nc1ccc(CCN2CCc3ccccc3C2)cc1
[b] COc1ccc(C(=O)Nc2ccccc2C(=O)Nc2ccc(CCN3CCc4cc(OC)c(OC)cc4C3)cc2)cc1OC
Request: Which item exceeds the other in IC50, a or b ? State your choice using its label.
Result: a

###

Catalogue of IC50 readings, one per entry.
- experimentalTarget: Multidrug resistance-associated protein 1 (Homo sapiens, UniProt P33527)
- Sequence (P33527 whole entry): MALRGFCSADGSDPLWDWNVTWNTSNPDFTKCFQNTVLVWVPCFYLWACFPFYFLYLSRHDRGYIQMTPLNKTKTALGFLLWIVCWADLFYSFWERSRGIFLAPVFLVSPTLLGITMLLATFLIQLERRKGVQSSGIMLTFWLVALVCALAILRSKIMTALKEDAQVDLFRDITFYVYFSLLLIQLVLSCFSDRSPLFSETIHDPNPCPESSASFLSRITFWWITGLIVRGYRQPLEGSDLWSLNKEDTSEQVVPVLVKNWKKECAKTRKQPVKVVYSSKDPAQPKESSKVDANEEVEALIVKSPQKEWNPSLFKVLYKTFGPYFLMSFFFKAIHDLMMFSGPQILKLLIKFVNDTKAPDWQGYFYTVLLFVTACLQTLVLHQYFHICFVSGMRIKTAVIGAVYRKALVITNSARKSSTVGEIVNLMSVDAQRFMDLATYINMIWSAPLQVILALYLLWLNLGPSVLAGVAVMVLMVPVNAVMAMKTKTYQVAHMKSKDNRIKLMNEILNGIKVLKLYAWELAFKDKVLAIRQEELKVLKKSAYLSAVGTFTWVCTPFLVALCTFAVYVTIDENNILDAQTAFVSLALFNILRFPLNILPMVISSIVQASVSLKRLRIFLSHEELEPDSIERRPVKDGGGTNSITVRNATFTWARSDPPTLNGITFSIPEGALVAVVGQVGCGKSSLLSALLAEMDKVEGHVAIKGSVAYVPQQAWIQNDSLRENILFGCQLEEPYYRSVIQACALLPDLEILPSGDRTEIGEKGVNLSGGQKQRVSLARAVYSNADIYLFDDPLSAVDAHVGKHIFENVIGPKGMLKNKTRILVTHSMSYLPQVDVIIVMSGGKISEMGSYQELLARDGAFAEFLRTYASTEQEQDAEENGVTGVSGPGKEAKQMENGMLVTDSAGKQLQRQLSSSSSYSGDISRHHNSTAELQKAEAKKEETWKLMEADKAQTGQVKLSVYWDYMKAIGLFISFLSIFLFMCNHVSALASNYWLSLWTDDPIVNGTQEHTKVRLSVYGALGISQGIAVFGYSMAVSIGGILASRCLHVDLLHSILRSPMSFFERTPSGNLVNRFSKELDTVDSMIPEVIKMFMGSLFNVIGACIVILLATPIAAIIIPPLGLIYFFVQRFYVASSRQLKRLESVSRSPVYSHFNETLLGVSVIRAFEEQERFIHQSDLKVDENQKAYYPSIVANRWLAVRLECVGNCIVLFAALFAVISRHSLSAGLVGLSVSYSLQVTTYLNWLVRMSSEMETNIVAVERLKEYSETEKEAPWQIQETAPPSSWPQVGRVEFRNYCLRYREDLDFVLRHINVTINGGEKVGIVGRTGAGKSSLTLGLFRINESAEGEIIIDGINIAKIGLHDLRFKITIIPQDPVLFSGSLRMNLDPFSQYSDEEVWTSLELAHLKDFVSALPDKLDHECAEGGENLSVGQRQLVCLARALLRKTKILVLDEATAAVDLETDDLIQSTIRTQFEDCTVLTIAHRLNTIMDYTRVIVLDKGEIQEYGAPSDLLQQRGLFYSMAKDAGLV
- method: Inhibition of MRP1 assessed as calcein AM accumulation by fluorescence assay

Worked cases, IC50 given:
{"columns": ["smilesString", "IC50"],
 "data": [
  ["COc1cc2c(cc1OC)CN(CCc1ccc(NC(=O)c3ccccc3NC(=O)Nc3ccc([N+](=O)[O-])cc3)cc1)CC2", "> 20 µM"],
  ["COc1ccc(C(=O)Nc2ccccc2C(=O)Nc2ccc(CCN3CCc4cc(OC)c(OC)cc4C3)cc2)cc1OC", "> 20 µM"]
]}

Now take the following compound into account.
Request: Assign IC50 to the following record: COc1cc2c(cc1OC)CN(CCc1ccc(NC(=O)c3ccccc3NC(=O)c3ccc([N+](=O)[O-])cc3)cc1)CC2
Result: > 20 µM

###

- experimentalTarget: Broad substrate specificity ATP-binding cassette transporter ABCG2 (Homo sapiens, UniProt Q9UNQ0)
- method: Inhibition of BCRP expressed in MDCK cells by pheophorbide A assay
- Type: cell-based
pIC50: −log10 of the molar value.
quantityKind: pIC50

Worked cases, pIC50 given:
{"columns": ["smilesString", "pIC50"],
 "data": [
  ["COc1cc2c(cc1OC)CN(CCc1ccc(NC(=O)Nc3ccccc3N)cc1)CC2", 4.23],
  ["COc1cc2c(cc1OC)CN(CCc1ccc(NC(=O)c3ccccc3NC(=O)Nc3ccc([N+](=O)[O-])cc3)cc1)CC2", 6.30],
  ["COc1cc2c(cc1OC)CN(CCc1ccc(NC(=O)Nc3ccc(N)cc3)cc1)CC2", 4.33],
  ["COc1cc2c(cc1OC)CN(CCc1ccc(NC(=O)c3ccc(N)cc3)cc1)CC2", 4.01],
  ["Nc1ccccc1C(=O)Nc1ccc(CCN2CCc3ccccc3C2)cc1", 4.68],
  ["COc1cc2c(cc1OC)CN(CCc1ccc(NC(=O)c3ccccc3N)cc1)CC2", 4.68]
]}

[1] COc1cc2c(cc1OC)CN(CCc1ccc(NC(=O)c3ccccc3NC(=O)c3ccc([N+](=O)[O-])cc3)cc1)CC2
[2] O=C(Nc1ccc(CCN2CCc3ccccc3C2)cc1)Nc1ccccc1[N+](=O)[O-]
Request: Which item exceeds the other in pIC50, 1 or 2 ? State your choice using its label.
Result: 1
